# study.target: UniProt:Q9UM07
# Sequence (Q9UM07 2-663): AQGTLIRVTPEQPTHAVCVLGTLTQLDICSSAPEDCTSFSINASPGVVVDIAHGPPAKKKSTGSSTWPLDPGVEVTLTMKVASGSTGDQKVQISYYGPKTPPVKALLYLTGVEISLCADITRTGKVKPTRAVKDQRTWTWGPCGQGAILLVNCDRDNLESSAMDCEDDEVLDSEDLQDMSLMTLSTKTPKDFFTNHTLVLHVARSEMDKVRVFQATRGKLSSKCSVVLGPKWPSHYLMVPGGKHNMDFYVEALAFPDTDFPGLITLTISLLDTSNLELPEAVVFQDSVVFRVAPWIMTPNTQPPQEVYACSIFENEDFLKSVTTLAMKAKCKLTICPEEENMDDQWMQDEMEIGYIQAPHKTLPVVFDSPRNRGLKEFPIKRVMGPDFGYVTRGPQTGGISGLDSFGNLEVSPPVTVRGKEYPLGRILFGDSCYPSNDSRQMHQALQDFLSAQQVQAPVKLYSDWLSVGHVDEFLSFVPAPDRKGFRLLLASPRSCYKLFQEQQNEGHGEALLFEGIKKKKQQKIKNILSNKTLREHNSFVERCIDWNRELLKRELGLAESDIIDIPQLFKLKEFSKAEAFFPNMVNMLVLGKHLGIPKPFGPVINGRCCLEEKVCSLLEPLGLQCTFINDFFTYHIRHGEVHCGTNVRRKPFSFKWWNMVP
# protocol: In Vitro PAD4 BAEE Biochemical Assay
# measurement.setup: recombinant PAD4 5 nM, 2 mM calcium chloride, 3 mM BAEE substrate; geometric mean of multiple experiments
reported.property: IC50 (nM)

Quick one: IC50 of COc1cc(C(=O)N2C[C@H](N)[C@@H]3CC[C@H]2C3)cc2nc(-c3cc4ccc([C@@H](C)NC(=O)C5(F)CCC5)nc4n3CC3CC3)n(C)c12 ?
88.4

Need IC50 of C[C@@H](NS(=O)(=O)C1CC1)c1ccc2cc(-c3nc4cc(C(=O)N5C[C@H](N)[C@@H]6CC[C@H]5C6)cc(F)c4n3C3CC3)n(CC3CC3)c2n1 , thanks.
89.8

Quick check: IC50 of COC(=O)N(C)c1ccc2cc(-c3nc4cc(C(=O)N5C[C@H](N)[C@@H]6CC[C@H]5C6)cc(OC)c4n3C)n(CC3CC3)c2n1 ?
106

Entry COc1cc(C(=O)N2C[C@H](N)[C@@H]3CC[C@H]2C3)cc2nc(-c3cc4ccc([C@@H](C)NC(=O)c5ccnc(Cl)c5)nc4n3CC3CC3)n(C)c12 : reported IC50 = ?
86.4

Recorded IC50 of COc1cc(C(=O)N2C[C@H](N)[C@@H]3CC[C@H]2C3)cc2nc(-c3cc4ccc([C@@H](C)NC(=O)c5cccnc5C(F)F)nc4n3CC3CC3)n(C)c12 , please.
72.7

Bench note: what IC50 did COc1cc(C(=O)N2C[C@H](N)[C@@H]3CC[C@H]2C3)cc2nc(-c3cc4ccc([C@@H](C)NC(=O)[C@@H]5C[C@H]5F)nc4n3CC3CC3)n(C)c12 show?
70.8

Could you tell me which IC50 is on file for COc1cc(C(=O)N2C[C@H](N)[C@@H]3CC[C@H]2C3)cc2nc(-c3cc4ccc([C@@H](C)NC(=O)c5cnc(C(F)F)nc5)nc4n3CC3CC3)n(C)c12 ?
81.3
